Just for reference, patent US11986532B2 is where these values come from.

- EXPERIMENTAL TARGET: BCL6 (Homo sapiens)
- Construct: endogenous in cells; host or cells: T47D breast cancer epithelial cells
- ASSAY NAME: Immunofluorescence protocol for high content imaging of BCL6 (degradation) in T47D cells, 3 days compound treatment
- Assay type: cell-based
- ASSAY CONTEXT: T47D, read-out: Mean Dmax (%)** category
- Procedure: Immunofluorescence Protocol for High Content Imaging of BCL6 T47D cells were seeded in 100 μl volume of RPMI1640-10% FBS in a 96-well black/clear bottom plates for adherent lines (Corning #3904). Day 1. T47D breast cancer epithelial cells were seeded at a density so that confluence is ˜70-90% at endpoint. Cells were seeded at 7K/0.1 ml/well the morning prior to the addition of exemplary bifunctional degradation compounds. Day 2. […] Plates were equilibrated to room temperature prior to reading. […]
OBSERVED PROPERTY: Dmax

CNC(=O)COc1cc2cc(Nc3nc(N4CCC(O[C@H]5C[C@H](N6CCC(F)(c7ccc8c(c7)C(=O)N(C7CCC(=O)NC7=O)C8=O)CC6)C5)CC4)ncc3Cl)ccc2n(C(C)C)c1=O (stereo partly drawn) = 50 to 70%
CNC(=O)COc1cc2cc(Nc3nc(N4CCC(O[C@H]5C[C@H](N6CCC(c7ccc8c(n7)CN(C7CCC(=O)NC7=O)C8=O)CC6)C5)CC4)ncc3Cl)ccc2n(C(C)C)c1=O (stereo partly drawn) = 50 to 70%
CNC(=O)COc1cc2cc(Nc3nc(N4CCC(O[C@H]5C[C@H](N6CCC7(CCN(c8ccc9c(c8)C(=O)N(C8CCC(=O)NC8=O)C9=O)CC7)C6)C5)CC4)ncc3Cl)ccc2n(C(C)C)c1=O (stereo partly drawn) = ≥ 70%

====

Dmax listing for selected compounds.
- EXPERIMENTAL TARGET: BCL6 (Homo sapiens, UniProt P41182)
- Construct: endogenous in cells; host or cells: T47D breast cancer epithelial cells
- ASSAY NAME: Immunofluorescence protocol for high content imaging of BCL6 (degradation) in T47D cells, 3 days compound treatment
- Format: cell-based
- ASSAY CONTEXT: T47D cells, 3 days compound treatment, read-out: Mean Dmax (%)** category
OBSERVED PROPERTY: Dmax

CNC(=O)COc1cc2cc(Nc3nc(N4CCC(CN5CCC6(CN(c7ccc8c(c7)C(=O)N(C7CCC(=O)NC7=O)C8=O)C6)C(F)(F)C5)CC4)ncc3Cl)ccc2n(C)c1=O (centres unmarked) = < 50%
CNC(=O)COc1cc2cc(Nc3nc(N4CCC(O[C@H]5C[C@H](N6CCC(c7ccc8c(c7F)CN(C7CCC(=O)NC7=O)C8=O)C(F)C6)C5)CC4)ncc3Cl)ccc2n(C(C)C)c1=O (some centres unmarked) = ≥ 70%
CNC(=O)COc1cc2cc(Nc3nc(N4CCC(O[C@H]5CC[C@H](N6CCC(c7ccc8c(c7)C(=O)N(C7CCC(=O)NC7=O)C8=O)CC6)CC5)CC4)ncc3Cl)ccc2n(C(C)C)c1=O (some centres unmarked) = 50 to 70%
CNC(=O)COc1cc2cc(Nc3nc(N4CCC(O[C@H]5C[C@H](N6CCN(c7ccc8c(n7)C(C)N(C7CCC(=O)NC7=O)C8=O)[C@@H](C)C6)C5)CC4)ncc3Cl)ccc2n(C(C)C)c1=O (some centres unmarked) = ≥ 70%
CNC(=O)COc1cc2cc(Nc3nc(N4CCC(F)(CN5CCC6(CC5)CCN(c5cc(F)cc7c5CN(C5CCC(=O)NC5=O)C7=O)CC6)CC4)ncc3Cl)ccc2n(C(C)C)c1=O (centres unmarked) = 50 to 70%
